tested on: SET 2 (JAK2 V617F) cells; assay: CCK-8 cell proliferation detection, SET2 cells; format: cell-based; conditions: Homo sapiens, SET-2; Table 2; CCK-8, 72 hrs
Response field label: string, one of Met (IC50 strictly below 10 µM) or Not met.

compound: CC(Oc1cc(-n2cccn2)cnc1N)c1cc(F)ccc1Cl (stereo not drawn) [XFL-179]
class: Not met
--
compound: CC(Oc1cc(-c2ccn[nH]2)cnc1N)c1cc(F)ccc1Cl (stereo not drawn) [XFL-141]
class: Met
--
compound: CC(Oc1cc(Nc2ccccn2)cnc1N)c1cc(F)ccc1Cl (stereo not drawn) [MXY-175]
class: Not met
--
compound: COc1ccc(F)c(Cl)c1C(C)Oc1cc(-c2cnn(C3CCNCC3)c2)cnc1N (stereo not drawn) [WWQ-175]
class: Met

Inquiry: Please state whether IC50 is below 10 µM for CC(Oc1cc(-c2cncnc2)cnc1N)c1cc(F)ccc1Cl (stereo not drawn) [MXY-032-45]
Reply text: Not met

Inquiry: And then CC(Oc1cc(-c2cccc(N3CCOCC3)c2)cnc1N)c1cc(F)ccc1Cl (stereo not drawn) [MXY-032-55] , what is it?
Reply text: Not met

Inquiry: C[C@@H](Oc1cc(-c2ccc(N3CCNCC3)nc2)cnc1N)c1c(Cl)ccc(F)c1Cl [WWQ-191] ?
Reply text: Met

Inquiry: Also check CC(Oc1cc(Nc2ccc3ccccc3n2)cnc1N)c1cc(F)ccc1Cl (stereo not drawn) [MXY-032-85]
Reply text: Not met

Inquiry: Quick one: CC(Oc1cc(-c2cnn(C3CCOC3)c2)cnc1N)c1cc(F)ccc1Cl (stereo not drawn) [MXY-032-53]
Reply text: Not met

Inquiry: Same thing, different compound: CC(Oc1cc(-c2ccccc2)cnc1N)c1cc(F)ccc1Cl (stereo not drawn) [WWQ-1093-75]
Reply text: Not met

Inquiry: Please answer likewise for CC(Oc1cc(-c2c[nH]c3ccccc23)cnc1N)c1cc(F)ccc1Cl (stereo not drawn) [MXY-137]
Reply text: Not met

Inquiry: What would you report for COCCCn1cc(-c2cnc(N)c(OC(C)c3cc(F)ccc3Cl)c2)cn1 (stereo not drawn) [MXY-032-93] ?
Reply text: Met

Inquiry: Same for COc1ncc(F)cc1C(C)Oc1cc(-c2cnn(C3CCNCC3)c2)cnc1N (stereo not drawn) [MXY-111]
Reply text: Met

Inquiry: How about this compound: C[C@@H](Oc1cc(-c2cnn(C3CCNCC3)c2)cnc1N)c1ccccc1 [WWQ-1093-25]
Reply text: Met

Inquiry: CC(Oc1cc(-c2nccs2)cnc1N)c1cc(F)ccc1Cl (stereo not drawn) [XFL-169] , same question.
Reply text: Met

Inquiry: Next entry: C[C@@H](Oc1cc(-c2cccnc2)cnc1N)c1c(Cl)ccc(F)c1Cl [WWQ-189]
Reply text: Not met
